Target system: T1, full-length human GPC3 (human, UniProt P51654 25-554)
T1 construct: On CHO (DXB11) or SK-HEP-1 (SK-03) transfectants; also used here for the GPC3 on the hepatoma lines HepG2 and HuH-7; also called human glypican 3
T1 sequence (P51654 25-554 limits assumed): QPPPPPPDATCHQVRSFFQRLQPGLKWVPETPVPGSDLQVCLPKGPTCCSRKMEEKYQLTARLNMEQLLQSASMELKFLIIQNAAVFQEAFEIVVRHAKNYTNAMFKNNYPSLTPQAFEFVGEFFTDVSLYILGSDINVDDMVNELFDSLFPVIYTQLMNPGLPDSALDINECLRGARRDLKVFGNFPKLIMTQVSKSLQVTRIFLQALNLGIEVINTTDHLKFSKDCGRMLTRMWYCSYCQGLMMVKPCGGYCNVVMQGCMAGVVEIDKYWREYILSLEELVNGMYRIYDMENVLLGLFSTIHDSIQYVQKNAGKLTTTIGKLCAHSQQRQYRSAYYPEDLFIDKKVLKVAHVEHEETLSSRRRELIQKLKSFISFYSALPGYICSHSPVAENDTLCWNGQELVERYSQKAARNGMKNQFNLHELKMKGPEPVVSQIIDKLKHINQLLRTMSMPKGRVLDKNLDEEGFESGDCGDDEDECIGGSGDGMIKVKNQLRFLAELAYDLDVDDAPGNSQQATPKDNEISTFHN
Experiment notes: flow cytometry, antibody at 5 µg/mL, CHO cells expressing human GPC3 (column CHO/human GPC3)
Readout kind: FACS X-mode value of the histogram
Field format: numeric only.

# query: FACS X-mode value of the histogram of entry M10D2 (antibody, V domains shown, Mouse monoclonal from hybridoma) VH: QVQLQQPGAELVKPGASVKLSCKASGYTFTSYWMHWVKQRPGQGLEWIGEIDPSDSYTYYNQKFRGKATLTVDKSSNTAYMQLSSLTSEDSAVYYCSRSNLGDGHYRFPAFPYWGQGTLVTVSA VL: DIVLTQSPATLSVTPGDRVSLSCRASHSISNFLHWYPQKSHESPRLLIKYASQSISGIPSRFSGNGSGTDFTLSINSVETEDFGMYFCQQSNIWSLTFGAGTKLELK
20
